Origin of measurements: patent US9463338B2

reportedEndpoint: melting point
Dear colleague, please send the value followed by its unit.

{"molecule": "CCCCCCCCCCCCCCCCOC(=O)/C=C/c1cc(OC)c(OC(C)=O)c(OC)c1 [Compound 4]", "melting point": "82 °C"}
{"molecule": "COc1cc(/C=C/C(=O)NCCCc2ccccc2)cc(OC)c1OC(C)=O [Compound 26]", "melting point": "132 °C"}
{"molecule": "COc1cc(/C=C/C(=O)NCCc2ccc(O)cc2)cc(OC)c1OC(C)=O [Compound 36]", "melting point": "99 °C"}

Let us move to another entry and its melting point.
// lookup melting point for COc1cc(/C=C/C(=O)OCCc2ccc(OC(C)=O)cc2)cc(OC)c1OC(C)=O [Compound 1] 132 °C

----------
Entries and their melting point values follow.
Expressed in °C, but write only the number.

Please review the entries below; each comes with its answer.
{"smi": "COc1cc(/C=C/C(=O)Oc2cc(C)ccc2C(C)C)cc(OC)c1OC(C)=O", "unitText": "°C", "melting point": 143}
{"smi": "COc1ccc2[nH]cc(CCNC(=O)/C=C/c3cc(OC)c(OC(C)=O)c(OC)c3)c2c1", "unitText": "°C", "melting point": 148}

Let us move to another entry and its melting point.
// lookup melting point for COc1cc(/C=C/C(=O)Nc2ccccc2)cc(OC)c1OC(C)=O 100
